Reference for the values: ChEMBL document CHEMBL1165950

# System: BT-549
# ASSAY_EXPLANATION: Cytotoxicity against human BT549 cells assessed as cell growth at 0.01 uM after 48 hrs by sulforhodamine B assay
# Assay type: functional
# EXPERIMENTAL_SETUP: BT-549, 48 h, read-out: Activity
Assign labels as follows, please: class 1 for growth at 0.01 µM below 90%; class 0 for growth at 0.01 µM equal to or exceeding 90%.

COc1cc(C)cc(-c2nn(CC#N)cc2-c2ccnc(-c3ccc(N(C)C)cc3)c2)c1 : class 0
COc1cc(C)cc(-c2c(-c3ccnc(-c4ccc(N(C)C)cc4)c3)cnn2CC#N)c1 : class 1
COc1cc(C)cc(-c2c(-c3ccnc(-c4ccc(C(C)=O)cc4)c3)cnn2CC#N)c1 : class 1

###

# System: SK-OV-3
# ASSAY_EXPLANATION: Growth inhibition of human SKOV3 cells after 48 hrs by sulforhodamine B assay
# Assay type: functional
# EXPERIMENTAL_SETUP: SK-OV-3, 48 h
Listed below: TGI values for each entry.
ENDPOINT: TGI (µM)

Cc1cc(O)cc(-c2nn(CC#N)cc2-c2ccnc(-c3ccc(Oc4ccccc4)cc3)c2)c1 : 24.4
COc1cc(C)cc(-c2nn(CC#N)cc2-c2ccc(-c3cccc(C(C)=O)c3)nc2)c1 : 9.1
COc1cc(C)cc(-c2nn(CC#N)cc2-c2ccnc(-c3ccc(N(C)C)cc3)c2)c1 : 0.882
Cc1cc(O)cc(-c2nn(CC#N)cc2-c2ccnc(-c3ccc(N(C)C)cc3)c2)c1 : 8.03

###

Listed below: growth at 0.001 µM values for each entry.
# Tested on: SF-539
# ASSAY_EXPLANATION: Cytotoxicity against human SF539 cells assessed as cell growth at 0.001 uM after 48 hrs by sulforhodamine B assay
# Format: functional
# EXPERIMENTAL_SETUP: SF-539, 48 h, read-out: Activity
ENDPOINT: growth at 0.001 µM (%)

COc1cc(C)cc(-c2c(-c3ccnc(-c4ccc(C(C)=O)cc4)c3)cnn2CC#N)c1 : 92
Cc1cc(O)cc(-c2nn(CC#N)cc2-c2ccnc(-c3ccc(Oc4ccccc4)cc3)c2)c1 : 88
COc1cc(C)cc(-c2nn(CC#N)cc2-c2ccnc(-c3ccc(N(C)C)cc3)c2)c1 : 102
COc1cc(C)cc(-c2nn(CC#N)cc2-c2ccc(-c3cccc(C(C)=O)c3)nc2)c1 : 94
COc1cc(C)cc(-c2c(-c3ccnc(-c4ccc(N(C)C)cc4)c3)cnn2CC#N)c1 : 104
Cc1cc(O)cc(-c2nn(CC#N)cc2-c2ccnc(-c3ccc(N(C)C)cc3)c2)c1 : 97

###

# Tested on: A549
# ASSAY_EXPLANATION: Cytotoxicity against human A549 cells assessed as cell growth at 1 uM after 48 hrs by sulforhodamine B assay
# Assay type: functional
# EXPERIMENTAL_SETUP: A549, 48 h, read-out: Activity
ENDPOINT: growth at 1 µM

COc1cc(C)cc(-c2nn(CC#N)cc2-c2ccc(-c3cccc(C(C)=O)c3)nc2)c1 : 21%
COc1cc(C)cc(-c2c(-c3ccnc(-c4ccc(C(C)=O)cc4)c3)cnn2CC#N)c1 : 25%
COc1cc(C)cc(-c2nn(CC#N)cc2-c2ccnc(-c3ccc(N(C)C)cc3)c2)c1 : 14%
Cc1cc(O)cc(-c2nn(CC#N)cc2-c2ccnc(-c3ccc(Oc4ccccc4)cc3)c2)c1 : -37%
Cc1cc(O)cc(-c2nn(CC#N)cc2-c2ccnc(-c3ccc(N(C)C)cc3)c2)c1 : 23%
COc1cc(C)cc(-c2c(-c3ccnc(-c4ccc(N(C)C)cc4)c3)cnn2CC#N)c1 : 5%

###

Listed below: growth at 10 µM values for each entry.
# Test system: HCT-15
# ASSAY_EXPLANATION: Cytotoxicity against human HCT15 cells assessed as cell growth at 10 uM after 48 hrs by sulforhodamine B assay
# Type: functional
# EXPERIMENTAL_SETUP: HCT-15, 48 h, read-out: Activity
ENDPOINT: growth at 10 µM (%)

Cc1cc(O)cc(-c2nn(CC#N)cc2-c2ccnc(-c3ccc(N(C)C)cc3)c2)c1 : -39
Cc1cc(O)cc(-c2nn(CC#N)cc2-c2ccnc(-c3ccc(Oc4ccccc4)cc3)c2)c1 : -73
COc1cc(C)cc(-c2nn(CC#N)cc2-c2ccc(-c3cccc(C(C)=O)c3)nc2)c1 : 3
COc1cc(C)cc(-c2c(-c3ccnc(-c4ccc(C(C)=O)cc4)c3)cnn2CC#N)c1 : 12
COc1cc(C)cc(-c2nn(CC#N)cc2-c2ccnc(-c3ccc(N(C)C)cc3)c2)c1 : -20
COc1cc(C)cc(-c2c(-c3ccnc(-c4ccc(N(C)C)cc4)c3)cnn2CC#N)c1 : 9

###

# Test system: HCT-15
# ASSAY_EXPLANATION: Cytotoxicity against human HCT15 cells assessed as cell growth at 100 nM after 48 hrs by sulforhodamine B assay
# Type: functional
# EXPERIMENTAL_SETUP: HCT-15, 48 h, read-out: Activity
Listed below: growth at 0.1 µM values for each entry.
ENDPOINT: growth at 0.1 µM (%)

Cc1cc(O)cc(-c2nn(CC#N)cc2-c2ccnc(-c3ccc(N(C)C)cc3)c2)c1 : 90
COc1cc(C)cc(-c2nn(CC#N)cc2-c2ccc(-c3cccc(C(C)=O)c3)nc2)c1 : 69
COc1cc(C)cc(-c2nn(CC#N)cc2-c2ccnc(-c3ccc(N(C)C)cc3)c2)c1 : 15
COc1cc(C)cc(-c2c(-c3ccnc(-c4ccc(N(C)C)cc4)c3)cnn2CC#N)c1 : 14
Cc1cc(O)cc(-c2nn(CC#N)cc2-c2ccnc(-c3ccc(Oc4ccccc4)cc3)c2)c1 : 91
COc1cc(C)cc(-c2c(-c3ccnc(-c4ccc(C(C)=O)cc4)c3)cnn2CC#N)c1 : 87

###

# System: SF-539
# ASSAY_EXPLANATION: Growth inhibition of human SF539 cells after 48 hrs by sulforhodamine B assay
# Format: functional
# EXPERIMENTAL_SETUP: SF-539, 48 h, read-out: LC50 (the source's name)
ENDPOINT: CC50

COc1cc(C)cc(-c2c(-c3ccnc(-c4ccc(N(C)C)cc4)c3)cnn2CC#N)c1 : > 100 µM
COc1cc(C)cc(-c2nn(CC#N)cc2-c2ccc(-c3cccc(C(C)=O)c3)nc2)c1 : > 100 µM
COc1cc(C)cc(-c2nn(CC#N)cc2-c2ccnc(-c3ccc(N(C)C)cc3)c2)c1 : > 100 µM
COc1cc(C)cc(-c2c(-c3ccnc(-c4ccc(C(C)=O)cc4)c3)cnn2CC#N)c1 : > 100 µM
Cc1cc(O)cc(-c2nn(CC#N)cc2-c2ccnc(-c3ccc(Oc4ccccc4)cc3)c2)c1 : 44 µM
Cc1cc(O)cc(-c2nn(CC#N)cc2-c2ccnc(-c3ccc(N(C)C)cc3)c2)c1 : 27.3 µM

###

# Test system: NCI/ADR-RES
# ASSAY_EXPLANATION: Cytotoxicity against human NCI/ADR-RES cells assessed as cell growth at 10 uM
# Format: functional
# EXPERIMENTAL_SETUP: read-out: Activity
ENDPOINT: growth at 10 µM (%)

COc1cc(C)cc(-c2nn(CC#N)cc2-c2ccnc(-c3ccc(C(C)=O)cc3)c2)c1 : 73.8
COc1cc(C)cc(-c2nn(CC#N)cc2-c2ccnc(-c3ccc(Oc4ccccc4)cc3)c2)c1 : 80.3
COc1cc(C)cc(-c2nn(CC#N)cc2-c2ccnc(-c3ccc(C#N)cc3)c2)c1 : 76.8
COc1cc(C)cc(-c2nn(CC#N)cc2-c2ccc(-c3cccc(C(C)=O)c3)nc2)c1 : -25.8

###

# System: HOP-62
# ASSAY_EXPLANATION: Cytotoxicity against human HOP62 cells assessed as cell growth at 10 uM
# Type: functional
# EXPERIMENTAL_SETUP: read-out: Activity
Classification field: rule met = growth at 10 µM at or over 90%; rule not met = growth at 10 µM under 90%.

Cc1cc(O)cc(-c2nn(CC#N)cc2-c2ccnc(-c3ccc(Oc4ccccc4)cc3)c2)c1 : rule met
Cc1cc(O)cc(-c2nn(CC#N)cc2-c2ccnc(-c3ccccc3)c2)c1 : rule met
COc1cc(C)cc(-c2nn(CC#N)cc2-c2ccnc(-c3ccc(N(C)C)cc3)c2)c1 : rule not met
Cc1cc(O)cc(-c2nn(CC#N)cc2-c2ccnc(-c3ccc(N(C)C)cc3)c2)c1 : rule not met
COc1cc(C)cc(-c2c(-c3ccnc(-c4ccc(C(C)=O)cc4)c3)cnn2CC#N)c1 : rule not met
COc1cc(C)cc(-c2c(-c3ccnc(-c4cccc(NC(C)=O)c4)c3)cnn2CC#N)c1 : rule met
COc1cc(C)cc(-c2c(-c3ccnc(-c4ccc(N(C)C)cc4)c3)cnn2CC#N)c1 : rule not met
COc1cc(C)cc(-c2nn(CC#N)cc2-c2ccnc(-c3ccc(C#N)cc3)c2)c1 : rule met
COc1cc(C)cc(-c2nn(CC#N)cc2-c2ccnc(-c3ccc(C(C)=O)cc3)c2)c1 : rule met
COc1cc(C)cc(-c2nn(CC#N)cc2-c2ccc(-c3cccc(C(C)=O)c3)nc2)c1 : rule not met
COc1cc(C)cc(-c2nn(CC#N)cc2-c2ccnc(-c3ccc(Oc4ccccc4)cc3)c2)c1 : rule met
COc1cc(C)cc(-c2nn(CC#N)cc2-c2ccnc(-c3cccc(NC(C)=O)c3)c2)c1 : rule met
Cc1cc(O)cc(-c2nn(CC#N)cc2-c2ccnc(-c3ccc(C#N)cc3)c2)c1 : rule not met
